Values were extracted from PubChem BioAssay (EPA / NIEHS).

EXPERIMENTAL_PROTOCOL: BSK_3C_uPAR: BioMAP Diversity Plus: 3C Assay for Urokinase-type plasminogen activator receptor (uPAR) Biomarker Activity (AID 2282998)
STATED_CONDITIONS: BioMAP 3C HUVEC, uPAR biomarker ELISA; actives raise or lower the signal
Activity calls are given as the source filed them. How the source made its calls: active means hit-call score of the fitted dose curve at least 0.9, where 1 is the maximum; inactive means score below 0.9.
Could you please pick one outcome from this set? YES = active, NO = inactive

Incoming: Please indicate how the test categorized CCOC(=O)CC(CC(=O)OCC)(OC(C)=O)C(=O)OCC .
Outgoing: NO

Incoming: Please indicate how the test categorized CC(C)CCCCCCCOC(=O)CCCCC(=O)OCCCCCCCC(C)C .
Outgoing: NO

Incoming: Please indicate how the test categorized CC1(C)C(=O)N(Br)C(=O)N1Br .
Outgoing: NO

Incoming: Please indicate how the test categorized Cc1[nH]cnc1C[C@H]1CCc2c(C)c3ccccc3n2C1=O .
Outgoing: YES

Incoming: Please indicate how the test categorized NC(=O)NO .
Outgoing: NO

Incoming: Please indicate how the test categorized CN(C)c1ccc(N=NS(=O)(=O)O)cc1 .
Outgoing: NO

Incoming: Please indicate how the test categorized CC(C)=CCC/C(C)=C/CO .
Outgoing: NO

Incoming: Please indicate how the test categorized CCn1nc(Cc2ccccc2)cc1C1CCN(C[C@H]2C[C@H](N(C)[C@@H](C(=O)O)C(C)C)C[C@@H]2c2cccc(F)c2)CC1 .
Outgoing: NO

Incoming: Please indicate how the test categorized O=C(O)c1cc(N=Nc2ccc(S(=O)(=O)Nc3ccccn3)cc2)ccc1O .
Outgoing: NO

Incoming: Please indicate how the test categorized O=C(NS(=O)(=O)/C=C/c1ccccc1)c1ccc(F)cc1Cl .
Outgoing: NO

Incoming: Please indicate how the test categorized COC(=O)CC(=O)OC .
Outgoing: NO

Incoming: Please indicate how the test categorized CCCCCCCCCCCCCCCO .
Outgoing: YES

Incoming: Please indicate how the test categorized CC(C)CCO .
Outgoing: NO

---

Read-out: Intercellular Adhesion Molecule 1 (ICAM1), ICAM1 (gene 3383)
EXPERIMENTAL_PROTOCOL: BSK_KF3CT_ICAM1: BioMAP Diversity Plus: KF3CT Assay for Intercellular Adhesion Molecule 1 (ICAM1) Biomarker Activity (AID 2283067)
STATED_CONDITIONS: primary human keratinocytes with fibroblasts; actives raise or lower the signal
The source made the active and inactive calls. The calls were made as follows: active = hit-call score of the fitted dose curve at least 0.9, where 1 is the maximum; inactive = score below 0.9.
REPORTED_PROPERTY: outcome

>>> print(df.to_string())
                                   compound  meas_value
0    CCOC(=O)CC(CC(=O)OCC)(OC(C)=O)C(=O)OCC    inactive
1                  Clc1nc(Cl)c(Cl)c(Cl)c1Cl    inactive
2  CCN(C(=O)c1cc(C)cc(OC[C@H](C)Nc2ccncc2)c1)C(C)C    inactive
3  COc1ccc(/C=C/S(=O)(=O)NC(=O)c2ccc(C)cc2Cl)cc1    inactive

// switching to the query compound
Incoming: // outcome lookup, key: Cn1cnc([N+](=O)[O-])c1Sc1ncnc2nc[nH]c12
Outgoing: inactive

---

EXPERIMENTAL_PROTOCOL: ATG_FoxO_CIS: Attagene CIS-FACTORIAL HepG2 Assay for human Forkhead box O (FoxO) (AID 2282943)
STATED_CONDITIONS: HepG2 Attagene cis-reporter, FoxO element, mRNA; actives raise or lower the signal
Activity calls are given as the source filed them. How the source made its calls: active means hit-call score of the fitted dose curve at least 0.9, where 1 is the maximum; inactive means score below 0.9.
Could you please pick one outcome from this set? T for active, F for inactive

Incoming: Please indicate how the test categorized CC(O)CN(CCN(CC(C)O)CC(C)O)CC(C)O (stereo not given) .
Outgoing: F

Incoming: Please indicate how the test categorized O=C1OC(=O)C2C3C=CC(C3)C12 (stereo not given) .
Outgoing: F

Incoming: Please indicate how the test categorized Nc1cccc(N)c1 .
Outgoing: F

Incoming: Please indicate how the test categorized O=c1n(CC2CO2)c(=O)n(CC2CO2)c(=O)n1CC1CO1 (stereo not given) .
Outgoing: T

Incoming: Please indicate how the test categorized Clc1nc(Cl)c(Cl)c(Cl)c1Cl .
Outgoing: F

Incoming: Please indicate how the test categorized O=C(O)CCN(C1(C(=O)NO)CCCC1)S(=O)(=O)c1ccc(Oc2ccc(F)cc2)cc1 .
Outgoing: F

Incoming: Please indicate how the test categorized CC(C)=CCCC(C)=CC=O .
Outgoing: F

Incoming: Please indicate how the test categorized Cn1c(=O)cc(Oc2ccc(F)cc2F)c2cnc(NCC(C)(C)O)nc21 .
Outgoing: F

Incoming: Please indicate how the test categorized Cc1c(-c2cccnc2)c2ccccc2n1CCCCC(=O)O .
Outgoing: F

Incoming: Please indicate how the test categorized CC(=O)c1ccc2c(c1)[C@H](NC(=O)c1ccc(F)cc1)[C@@H](O)C(C)(C)O2 .
Outgoing: F

Incoming: Please indicate how the test categorized CC[C@H]1CC[C@H](NCc2cc3c(cc2OC)[C@H]2C[C@H]2C(=O)N3C)[C@H](c2ccccc2)N1 .
Outgoing: T

Incoming: Please indicate how the test categorized O=C(NS(=O)(=O)/C=C/c1ccccc1)c1ccc(F)cc1Cl .
Outgoing: F

Incoming: Please indicate how the test categorized Cc1ccc(C)c(O)c1 .
Outgoing: F

Incoming: Please indicate how the test categorized CCn1nc(Cc2ccccc2)cc1C1CCN(C[C@H]2C[C@H](N(C)[C@@H](C(=O)O)C(C)C)C[C@@H]2c2cccc(F)c2)CC1 .
Outgoing: F

Incoming: Please indicate how the test categorized COC(=O)c1c(Cl)c(Cl)c(C(=O)OC)c(Cl)c1Cl .
Outgoing: F

Incoming: Please indicate how the test categorized COc1ccc(/C=C/S(=O)(=O)NC(=O)c2ccc(C)cc2Cl)cc1 .
Outgoing: F

Incoming: Please indicate how the test categorized O=C(O)c1cccc(Oc2ccccc2)c1 .
Outgoing: F

Incoming: Please indicate how the test categorized CN(C)c1ccc(Cc2ccc(N(C)C)cc2)cc1 .
Outgoing: F

Incoming: Please indicate how the test categorized CCOC(=O)COc1ccc2c(c1)CC(NCC(O)c1cccc(Cl)c1)CC2 (stereo not given) .
Outgoing: F

Incoming: Please indicate how the test categorized C1N2CN3CN1CN(C2)C3 .
Outgoing: F

Incoming: Please indicate how the test categorized O=C(CCCCCCCCc1cccnc1)N1CCC(C=C(c2ccccc2)c2ccccc2)CC1 .
Outgoing: F

Incoming: Please indicate how the test categorized Oc1ccc2c(c1)-c1ccccc1C2 .
Outgoing: F

Incoming: Please indicate how the test categorized CC(C)=CCC/C(C)=C\CO .
Outgoing: F

Incoming: Please indicate how the test categorized CC(C)=CCCC(C)CCO (stereo not given) .
Outgoing: F

Incoming: Please indicate how the test categorized CCCCCCCCCCCCc1ccccc1 .
Outgoing: F

---

Read-out: Thrombomodulin, THBD (gene 7056)
EXPERIMENTAL_PROTOCOL: BSK_3C_Thrombomodulin: BioMAP Diversity Plus: 3C Assay for Thrombomodulin Biomarker Activity (AID 2283029)
STATED_CONDITIONS: primary human endothelial cells (HUVEC); actives raise or lower the signal
The source made the active and inactive calls. The calls were made as follows: active = hit-call score of the fitted dose curve at least 0.9, where 1 is the maximum; inactive = score below 0.9.
Could you please pick one outcome from this set? YES for active, NO for inactive

Incoming: Please indicate how the test categorized CNCc1ccc(NC(=O)c2c[nH]c3c2C(=O)CCC3)cc1 .
Outgoing: NO

Incoming: Please indicate how the test categorized Cc1ccc(C)c(O)c1 .
Outgoing: NO

Incoming: Please indicate how the test categorized O=C1OC(=O)C2C3C=CC(C3)C12 (stereo not drawn) .
Outgoing: NO

Incoming: Please indicate how the test categorized COc1ccc(-n2nc(C(F)F)cc2-c2ccc(S(C)=O)cc2)cc1 (stereo not drawn) .
Outgoing: NO

Incoming: Please indicate how the test categorized Cc1c(-c2cccnc2)c2ccccc2n1CCCCC(=O)O .
Outgoing: NO

Incoming: Please indicate how the test categorized O=c1n(CC2CO2)c(=O)n(CC2CO2)c(=O)n1CC1CO1 (stereo not drawn) .
Outgoing: NO

Incoming: Please indicate how the test categorized O=P(OC(CCl)CCl)(OC(CCl)CCl)OC(CCl)CCl .
Outgoing: NO

Incoming: Please indicate how the test categorized C=CC(=C)CCC=C(C)C .
Outgoing: NO

Incoming: Please indicate how the test categorized CC1=CC(=O)CC(C)(C)C1 .
Outgoing: NO

Incoming: Please indicate how the test categorized O=C(O)c1cccc(Oc2ccccc2)c1 .
Outgoing: NO

Incoming: Please indicate how the test categorized Cn1c(=O)cc(Oc2ccc(F)cc2F)c2cnc(NCC(C)(C)O)nc21 .
Outgoing: YES

Incoming: Please indicate how the test categorized COCCOCCOCCOC .
Outgoing: NO

Incoming: Please indicate how the test categorized CC(C)=CCCC(C)CCO (stereo not drawn) .
Outgoing: NO

Incoming: Please indicate how the test categorized CCNc1ccccc1 .
Outgoing: NO

Incoming: Please indicate how the test categorized CC(C)CCCCCCCOC(=O)CCCCC(=O)OCCCCCCCC(C)C .
Outgoing: NO

Incoming: Please indicate how the test categorized CCOc1cccc(-n2cc(C(=O)N3CCN(c4cc(C(=O)O)c5ccccc5c4)CC3)nc2-c2ccc(C)cc2)c1 .
Outgoing: NO

Incoming: Please indicate how the test categorized CCCCCCc1ccc(O)cc1O .
Outgoing: NO

Incoming: Please indicate how the test categorized Cc1ccc(N)cc1O .
Outgoing: NO

Incoming: Please indicate how the test categorized CN(C)c1ccc(N=NS(=O)(=O)O)cc1 .
Outgoing: NO

Incoming: Please indicate how the test categorized COC(=O)c1ccccc1O .
Outgoing: NO

Incoming: Please indicate how the test categorized O=C1CCCCCN1 .
Outgoing: NO

Incoming: Please indicate how the test categorized O=C(O)CC(O)C(=O)O (stereo not drawn) .
Outgoing: NO

Incoming: Please indicate how the test categorized CNS(=O)(=O)c1cc(C(=O)N2CCC(CCN3C4CCC3CC(n3c(C)nc5ccccc53)C4)(c3cccc(F)c3)CC2)c(Cl)cc1F (stereo not drawn) .
Outgoing: NO

Incoming: Please indicate how the test categorized CC(C)=CCCC(C)=CC=O .
Outgoing: NO

Incoming: Please indicate how the test categorized CC(=O)c1ccc2c(c1)[C@H](NC(=O)c1ccc(F)cc1)[C@@H](O)C(C)(C)O2 .
Outgoing: NO

Incoming: Please indicate how the test categorized CC1(C)C(=O)N(Br)C(=O)N1Br .
Outgoing: NO

Incoming: Please indicate how the test categorized C1=CCCC=CCCC=CCC1 .
Outgoing: NO

Incoming: Please indicate how the test categorized CCn1nc(Cc2ccccc2)cc1C1CCN(C[C@H]2C[C@H](N(C)[C@@H](C(=O)O)C(C)C)C[C@@H]2c2cccc(F)c2)CC1 .
Outgoing: NO

Incoming: Please indicate how the test categorized CC(C)CCO .
Outgoing: NO

Incoming: Please indicate how the test categorized CC(O)CN(CCN(CC(C)O)CC(C)O)CC(C)O (stereo not drawn) .
Outgoing: NO

Incoming: Please indicate how the test categorized CCN(C(=O)c1cc(C)cc(OC[C@H](C)Nc2ccncc2)c1)C(C)C .
Outgoing: NO

Incoming: Please indicate how the test categorized CCCN(C1CCN(C(=O)C2CCNCC2)CC1)[C@@H]1CCc2ccc(OC)cc2C1 .
Outgoing: NO

Incoming: Please indicate how the test categorized O=C(CCCCCCCCc1cccnc1)N1CCC(C=C(c2ccccc2)c2ccccc2)CC1 .
Outgoing: NO

Incoming: Please indicate how the test categorized CCCCCCCCO .
Outgoing: NO

Incoming: Please indicate how the test categorized CCOC(=O)c1ccc(C2CCC(NC[C@H](O)COc3ccc(O)c(NS(C)(=O)=O)c3)CC2)cc1 (stereo partly drawn) .
Outgoing: NO

Incoming: Please indicate how the test categorized CC(C)(O)c1coc(S(=O)(=O)NC(=O)Nc2c3c(cc4c2CCC4)CCC3)c1 .
Outgoing: NO

Incoming: Please indicate how the test categorized COc1cccc(-c2ccc(/C=C\CN3CCCCCC3)cc2Cl)c1 .
Outgoing: NO

Incoming: Please indicate how the test categorized CC(C)c1cccc(C(C)C)c1N1C(=O)c2ccc(O)cc2C1=O .
Outgoing: NO

Incoming: Please indicate how the test categorized CCOCCO .
Outgoing: NO

Incoming: Please indicate how the test categorized CCC(C)(C)C(=O)O[C@H]1C[C@@H](C)C=C2C=C[C@H](C)[C@H](CC[C@@H]3C[C@@H](O)CC(=O)O3)[C@H]21 .
Outgoing: YES

Incoming: Please indicate how the test categorized O=C(O)c1cc(N=Nc2ccc(S(=O)(=O)Nc3ccccn3)cc2)ccc1O .
Outgoing: NO

Incoming: Please indicate how the test categorized COC(=O)CC(=O)OC .
Outgoing: NO

Incoming: Please indicate how the test categorized C1N2CN3CN1CN(C2)C3 .
Outgoing: NO

Incoming: Please indicate how the test categorized CC(C)=CCC/C(C)=C/CO .
Outgoing: NO

Incoming: Please indicate how the test categorized On1ccccc1=S .
Outgoing: YES

Incoming: Please indicate how the test categorized O=C(OC[C@H]1O[C@@H](OC(=O)c2cc(O)c(O)c(OC(=O)c3cc(O)c(O)c(O)c3)c2)[C@H](OC(=O)c2cc(O)c(O)c(OC(=O)c3cc(O)c(O)c(O)c3)c2)[C@@H](OC(=O)c2cc(O)c(O)c(OC(=O)c3cc(O)c(O)c(O)c3)c2)[C@@H]1OC(=O)c1cc(O)c(O)c(OC(=O)c2cc(O)c(O)c(O)c2)c1)c1cc(O)c(O)c(OC(=O)c2cc(O)c(O)c(O)c2)c1 .
Outgoing: NO

Incoming: Please indicate how the test categorized Fc1ccccc1[C@@H](F)COC1CCC(Nc2ncnc3[nH]ncc23)CC1 (stereo partly drawn) .
Outgoing: NO

Incoming: Please indicate how the test categorized CN(C)c1ccc(Cc2ccc(N(C)C)cc2)cc1 .
Outgoing: NO
